Taken from patent EP4656642A1.

study target: ERα (Homo sapiens)
Sequence (P03372 whole entry): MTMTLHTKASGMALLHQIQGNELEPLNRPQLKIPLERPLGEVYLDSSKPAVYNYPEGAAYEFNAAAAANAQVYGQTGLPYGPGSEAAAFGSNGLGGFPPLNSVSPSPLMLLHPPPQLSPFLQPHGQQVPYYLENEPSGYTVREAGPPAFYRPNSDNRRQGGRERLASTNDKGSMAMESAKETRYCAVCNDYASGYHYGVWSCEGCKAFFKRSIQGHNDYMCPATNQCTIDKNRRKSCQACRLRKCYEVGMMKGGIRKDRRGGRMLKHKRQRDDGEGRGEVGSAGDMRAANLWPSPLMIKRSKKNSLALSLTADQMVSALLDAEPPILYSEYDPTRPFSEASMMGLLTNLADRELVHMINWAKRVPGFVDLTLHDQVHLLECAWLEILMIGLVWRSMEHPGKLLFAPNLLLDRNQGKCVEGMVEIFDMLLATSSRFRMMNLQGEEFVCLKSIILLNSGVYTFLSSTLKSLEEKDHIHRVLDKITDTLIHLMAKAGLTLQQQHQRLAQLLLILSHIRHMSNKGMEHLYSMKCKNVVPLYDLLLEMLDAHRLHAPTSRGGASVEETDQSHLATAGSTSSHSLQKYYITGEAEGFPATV
assay notes: Degradation of ERα in T-47D cells (immunoblotting, 4 h)
Assay type: cell-based
Design: host or cells: T-47D
measurement parameters: 10nM compound
readout type: Degradation rate (%) of ERα in T-47D cells

O=C1CCC(N2Cc3c(ccc4c3OCC43CCN(CC4(F)CCN(C(=O)C5CCN(c6ccc([C@@H]7c8ccc(O)cc8CC[C@@H]7c7ccccc7)cc6)CC5)CC4)CC3)C2=O)C(=O)N1 (stereo partly shown) = 73
O=C1CCC(N2Cc3c(ccc4c3OCC43CCN(CC4CN(C(=O)C5CCN(c6ccc([C@@H]7c8ccc(O)cc8CC[C@@H]7c7ccccc7)cc6)CC5)C4)CC3)C2=O)C(=O)N1 (stereo partly shown) = 80
O=C1CCC(N2Cc3cc4c(cc3C2=O)OC2(CC4)CN(C(=O)[C@H]3CC[C@H](CN4CCN(c5ccc([C@@H]6c7ccc(O)cc7CC[C@@H]6c6ccccc6)cc5)CC4)CC3)C2)C(=O)N1 (stereo partly shown) = 78
O=C1CCC(N2Cc3c(ccc4c3OCC43CCN(C(=O)[C@H]4CC[C@@H](N(CC5CC5)CC5CCN(c6ccc([C@@H]7c8ccc(O)cc8CC[C@@H]7c7ccccc7)cc6)CC5)CC4)CC3)C2=O)C(=O)N1 (stereo partly shown) = 57
O=C1CCC(N2Cc3c(ccc4c3OCC43CCN(CC(=O)NC4CC5(CCN(c6ccc([C@@H]7c8ccc(O)cc8CC[C@@H]7c7ccccc7)cc6)CC5)C4)CC3)C2=O)C(=O)N1 (stereo partly shown) = 81
C[C@@H]1Cc2cc(O)ccc2C(c2c(F)cc(N3CCC(C(=O)N4CCC(N5CCC6(CC5)COc5c6ccc6c5CN(C5CCC(=O)NC5=O)C6=O)[C@H](F)C4)CC3)cc2F)N1CC(F)F (stereo partly shown) = 65
O=C1CCC(N2Cc3c(ccc4c3OCC43CCN(C4CC5(CCN(C6CC7(CCN(c8ccc([C@@H]9c%10ccc(O)cc%10CC[C@@H]9c9ccccc9)cc8)CC7)C6)CC5)C4)CC3)C2=O)C(=O)N1 (stereo partly shown) = 81
O=C1CCC(N2Cc3cc4c(cc3C2=O)CCC2(CN(CC3CCN(C(=O)C5CCN(c6ccc([C@@H]7c8ccc(O)cc8CC[C@@H]7c7ccccc7)cc6)CC5)CC3)C2)O4)C(=O)N1 (stereo partly shown) = 77
O=C1CCC(N2Cc3c(ccc4c3OCC43CCN(C(=O)C4CCN(C5CCN(c6ccc([C@@H]7c8ccc(O)cc8CC[C@@H]7c7ccccc7)cc6)CC5)CC4)CC3)C2=O)C(=O)N1 (stereo partly shown) [K7] = 79
O=C1CCC(N2Cc3c(ccc4c3OCC43CCN(CC(=O)N4CC[C@]5(CCN(c6ccc([C@@H]7c8ccc(O)cc8CC[C@@H]7c7ccccc7)cc6)C5)C4)CC3)C2=O)C(=O)N1 (stereo partly shown) = 68
C[C@@H]1Cc2cc(O)ccc2C(c2c(F)cc(N3CCN(C[C@H]4CC[C@H](C(=O)N5CCC6(CC5)COc5c6ccc6c5CN(C5CCC(=O)NC5=O)C6=O)CC4)CC3)cc2F)N1CC(F)F (stereo partly shown) = 65
C[C@@H]1Cc2c(ccc3[nH]ncc23)C(c2ccc(N3CCC4(CCN(C(=O)CN5CCC6(CC5)COc5c6ccc6c5CN(C5CCC(=O)NC5=O)C6=O)C4)CC3)cn2)N1CC(F)(F)F (stereo partly shown) = 74
O=C1CCC(N2Cc3c(ccc4c3OCC43CCN(C(=O)[C@H]4C[C@@H](OC5CCN(c6ccc([C@@H]7c8ccc(O)cc8CC[C@@H]7c7ccccc7)cc6)CC5)C4)CC3)C2=O)C(=O)N1 (stereo partly shown) = 76
